Tested on: Fibroblast
Protocol: Multiplex assay against human fibroblast
Format: toxicity, cell-based
Setup Conditions: 12 h, 1 µM, compound concentration 1 uM, replicate 1
Measured Parameter: Total Cell Count
Just the number, please, no unit after it.

>>> readout_number("Cc1nc(Nc2n[nH]c3c2CN(C(=O)N[C@H](CN(C)C)c2ccccc2)C3(C)C)c2sccc2n1")
216
>>> readout_number("COc1cccc([C@@H](C)NCCCc2ccccc2Cl)c1.Cl [TECALCET HYDROCHLORIDE]")
222

Task: Identify measured Total Cell Count associated with CC(C)(O)CNc1ncc(-c2ccnc(Nc3ccnc(Cl)c3)n2)c(CC2CC2)n1
Output: 121

Task: Identify measured Total Cell Count associated with CN(C)CC#Cc1ccc(OCCCc2sc(N3CCc4cccc(C(=O)Nc5nc6ccccc6s5)c4C3)nc2C(=O)O)c(F)c1
Output: 111

Task: Identify measured Total Cell Count associated with CNc1nc(NCc2ccc(NS(C)(=O)=O)cc2Cl)cc(-c2ccccn2)n1
Output: 164

Task: Identify measured Total Cell Count associated with C=CC(=O)Nc1cc2c(Nc3ccc(F)c(Cl)c3)ncnc2cc1OCCCN1CCOCC1.Cl.Cl [CANERTINIB DIHYDROCHLORIDE]
Output: 198

Task: Identify measured Total Cell Count associated with Cn1cc(-c2[nH]c3cc(NC(=O)[C@H](N)C4CCCCC4)cc4c3c2C=NNC4=O)cn1
Output: 138
